# assaySystem: Fuc(a1-3)[Gal(b1-4)]GlcNAc(b1-6)GalNAc
# assayText: glycan array binding signal (z-score within array); higher = stronger binding
# conditionInfo: glycan notation: IUPAC condensed, linker removed
This is one part of a sample in which the strongest signals are shown more often than they occur.
Lab note: compare glycan array binding signal (z-score) against 0.7. Equal or greater, write 1. Smaller, write -1.

// inclusive: glycan array binding signal (z-score) at least 0.7? input: Epa2 (Candida glabrata) (protein) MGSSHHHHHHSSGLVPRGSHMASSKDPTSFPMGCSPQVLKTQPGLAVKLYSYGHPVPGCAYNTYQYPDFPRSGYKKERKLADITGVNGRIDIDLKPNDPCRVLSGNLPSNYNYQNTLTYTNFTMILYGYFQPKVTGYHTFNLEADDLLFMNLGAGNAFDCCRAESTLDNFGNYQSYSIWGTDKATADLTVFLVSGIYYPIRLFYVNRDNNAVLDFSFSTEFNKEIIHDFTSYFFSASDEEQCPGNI
1

// inclusive: glycan array binding signal (z-score) at least 0.7? input: Aap arpt (Staphylococcus epidermidis) (protein) NNEAPQMSSTLQAEEGSNAEAPQSEPTKAEEGGNAEAAQSEPTKAEEGGNAEAPQSEPTKAEEGGNAEAAQSEPTKTEEGSNVKAAQSEPTKAEEGSNAEAPQSEPTKTEEGSNAKAAQSEPTKAEEGGNAEAAQSEPTKTEEGSNAEAPQSEPTKAEEGGYAEAPQSEPTKTEEGGNAEAPNVPTIKA
-1

// inclusive: glycan array binding signal (z-score) at least 0.7? input: Loc1 (Escherichia coli) (protein) APCALTNVGEQRGTYILKPLSMKGNLTAEKIENTGNIIECTDLQETTNAIKVHFLTQNALKFKVGSRHYIINFPFEYDGKKIELPGKSSYNLEEMLSAINFTIPYSIASVSDSSNTADIFPGTPFPLLFEIEVSSCTGNNTNCNSVRFNYNLNTILQVNLMTHHHHHH
1

// inclusive: glycan array binding signal (z-score) at least 0.7? input: Pwp3 (Candida glabrata) (protein) MGSSHHHHHHSSGLVPRGSHMASKNPVDFTTVCQFPDNFSKKPGFLATTARLGLWITGNSYKELLNYPGTFTLTTQQASTTTPNIQLRGTDLFTTIYGLTVYPLYLLVELQGYFVPTQSGMYTFSLTGSDDAAIIFIGNPSTFPCDAFKTWPQATANDITVTDSINPSRTLYMVKGVAYPLRIAYYNGLGNGVLNAAFTDPSGTKRTDWNGYIWQYDQCSTCTYK
-1

// inclusive: glycan array binding signal (z-score) at least 0.7? input: BIp1-His (Cryptococcus neoformans) (protein) MFTKIFVALFAATAVLSAPVESAEKRITHTGRATFYSPSVGIGACGWQNTDEELVVALNAPQYALNADHNCGQSVRITNEQNGNQEIAKVVDLCPGCNDGDLDMSPALFGALNNNDFDQGVFPISWNFLPRDDTSSSN
-1

// inclusive: glycan array binding signal (z-score) at least 0.7? input: LngA (Escherichia coli) (protein) MLSVYNRTQKFKAEARKKIAKYHELRKQRGMSLLEVIIVLGIIGTIAAGVVILAQRAFDSRAVTDLVTNTNTVRVRMKDAYQRDGKYPDFVDPLSLTANTIKTDTSGIPAAQLVQLGKITPDEVRNNISGDFIAIGGALTSNGAQVKKGFAIELNGLSQEQCRSILGQVGNNWEYVAIGTSASGSYAMTATGVDMSVAASTTVLRSLGNNGQTTLTADKILSTCTAQVNSITLGSR
-1

Others:
// inclusive: glycan array binding signal (z-score) at least 0.7? input: SSR1 (Sclerotium rolfsii), A0A0M3KL30 (protein) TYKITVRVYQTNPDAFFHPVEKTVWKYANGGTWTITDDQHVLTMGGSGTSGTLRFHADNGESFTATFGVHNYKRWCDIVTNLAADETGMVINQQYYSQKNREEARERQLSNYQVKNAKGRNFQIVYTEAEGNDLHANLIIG
-1
